Test: qHTS assay for cell viability of the p53RE-bla HCT-116 cell line (AID 743292); also: nearly all actives have a fitted effect of over 55% in size
Conditions: p53RE-bla HCT-116 viability, ATP luminescence, 16 h; series mostly up to 95 µM
Records with an inconclusive call do not appear. Active and inactive are the calls of the source. Calls follow the shape of the dose curve; as a rule, active = well fitted cell-killing curve with a large enough effect; inconclusive = small, poorly fitted or top-dose-only effect, or effect the other way; inactive = flat fitted curve, though single readings scatter.
The reply should name one outcome from true (1) = active, false (0) = inactive

MOLECULE	QUALITATIVE LABEL
NC(N)=NC(=O)c1nc(Cl)c(N)nc1N	false (0)
COc1ccc2nc(S(=O)Cc3ncc(C)c(OC)c3C)[nH]c2c1 (stereo not given)	false (0)
CC(=O)Oc1ccccc1C(=O)O	false (0)

Recorded test call requested for C[C@]12CCC(=O)C=C1CC[C@@H]1[C@@H]2[C@@H](O)C[C@@]2(C)[C@H]1CC[C@]2(O)C(=O)CO
false (0)

What outcome does the record of this test show for Cc1cc2c(C(C)C)c(O)c(O)c(C=O)c2c(O)c1-c1c(C)cc2c(C(C)C)c(O)c(O)c(C=O)c2c1O ?
true (1)

I'd appreciate the recorded outcome for Cc1[nH]c(=O)c(C#N)cc1-c1ccncc1 from this test.
false (0)

I'd appreciate the recorded outcome for NC(=O)c1cnccn1 from this test.
false (0)

Entry CNC[C@H](O)c1cccc(O)c1 : call = ?
false (0)

Give the logged outcome of this assay for the following molecule: NC[C@H](O)c1ccc(O)c(O)c1
false (0)

Recorded test outcome, item O=c1[nH]cnc2[nH]ncc12
false (0)

====

Assay: Primary qHTS for inhibitors of nuclear receptor binding SET domain protein 2 (NSD2) in an RCH-ACV wild type WT cells (2C) (AID 1645877); also: nearly all actives have a fitted effect of over 70% in size; also: potency is read from the fitted curve at half-maximal effect
Conditions: RCH-ACV (leukaemia line) NSD2 WT (2C) viability, CellTiter-Glo, 72 h; series mostly up to 44.9 µM
Inconclusive results are not listed. Activity calls are given as the source filed them. Calls come from the whole dose curve; as a rule, active = well fitted inhibition curve with a large enough effect; inconclusive = small, poorly fitted or top-dose-only effect; inactive = no such curve, though single readings can be large or run the other way.
OBSERVED PROPERTY: Potency

Consider the reported Potency for these compounds:
COMPOUND	Potency
Cc1[nH]c(=O)c(C#N)cc1-c1ccncc1	inactive
CC[C@@H](C)[C@H](NC(=O)[C@H](CC1CCCCC1)NC(=O)c1ccno1)C(=O)N1CCC2(CCc3ccccc32)CC1	inactive
COc1ccccc1-c1cccc(-c2c(O)c3cc(C#N)c(Cl)cc3[nH]c2=O)c1	inactive
Cc1cnc(NC(=O)C2=C(O)c3ccccc3S(=O)(=O)N2C)s1	inactive
O=NN(CCCl)C(=O)NCCCl	inactive
N=c1nc(N2CCCCC2)cc(N)n1O	inactive
CNC[C@H](O)c1cccc(O)c1	inactive
CCOc1cc(N2CCC(O)CC2)ccc1Nc1ncc2c(n1)N(C)c1ccccc1C(=O)N2C	2.63 µM (active)

Potency recorded for this compound, O=C1CCC(N2C(=O)c3ccccc3C2=O)C(=O)N1 (stereo not drawn) , is inactive

Kindly note the recorded Potency for OCCn1cc(-c2cnc3nnn(Cc4ccc5ncccc5c4)c3n2)cn1 , which is inactive

Potency reading for O=C1[C@H](Cc2ccc(O)cc2)N2C(=O)CCN(C(=O)NCc3ccccc3)[C@H]2CN1Cc1cccc2ccccc12 : 3.72 µM (active)

Data point: NC(=O)c1ccc(I)c([N+](=O)[O-])c1 ; Potency = 16.6 µM (active)

Recorded result, Nc1ncnc2nc(-c3ccc(N4CCOCC4)nc3)cc(-c3cccc(Br)c3)c12 , Potency: 20.9 µM (active)

O=C(Nc1cccnc1)N1CCC(Cc2cccc(Oc3ccc(C(F)(F)F)cn3)c2)CC1 yielded Potency of 5.25 µM (active)

For reference, reported Potency for C1COC(NC(C2CC2)C2CC2)=N1 stands at inactive

response.value for O=C(NOC[C@H](O)CO)c1ccc(F)c(F)c1Nc1ccc(I)cc1F (field: Potency) = inactive

O=c1n(CCCN2CCN(c3cccc(Cl)c3)CC2)nc2ccccn12 yielded Potency of inactive

What the record says about OC(CCN1CCCCC1)(c1ccccc1)C1CC2C=CC1C2 (stereo not drawn) : Potency is inactive

Potency for NCCc1ccc(O)c(O)c1 is inactive

Recorded Potency (compound Cc1ccc(NC(=O)c2cccc(C(C)(C)C#N)c2)cc1Nc1ccc2ncn(C)c(=O)c2c1 ): 13.2 µM (active)

The compound listed as CCCC(CCC)C(=O)O shows Potency equal to inactive

// field: Potency; key: CC(C)c1onc(-c2c(Cl)cccc2Cl)c1COc1ccc(/C=C/c2cccc(C(=O)O)c2)c(Cl)c1 ; value = inactive

// sample N#Cc1ccc(C(c2ccc(C#N)cc2)n2cncn2)cc1 , its Potency was inactive

====

Test system: CAOV3
Assay: Primary qHTS to identify gynecologic anti-cancer compounds using libraries of approved drugs and bioactive compounds (AID 1345084); also: % is scaled to controls: 0 for no effect and ±100 for the full control effect; nearly all actives have a fitted effect of over 55% in size
Conditions: Gynecologic cancer cell panel viability, ATPlite luminescence, 48 h; series mostly up to 57.5 µM
Records with an inconclusive call do not appear. The source made the active and inactive calls. Calls follow the shape of the dose curve; as a rule, active = well fitted cell-killing curve with a large enough effect; inconclusive = small, poorly fitted or top-dose-only effect, or effect the other way; inactive = flat fitted curve, though single readings scatter.

CHEMICAL SMILES	TARGET OF ASSAY	outcome
COc1ccc(CCN2CCN(CCCc3ccccc3)CC2)cc1OC	CAOV3	inactive
N#CC[C@H](C1CCCC1)n1cc(-c2ncnc3[nH]ccc23)cn1	CAOV3	inactive
NC(=O)c1cnccn1	CAOV3	inactive
O=c1n(CCCN2CCN(c3cccc(Cl)c3)CC2)nc2ccccn12	CAOV3	inactive

====

Assay: qHTS of pediatric cancer cell lines to identify multiple opportunities for drug repurposing: Confirmatory screen for SJ-GBM2 cells (AID 1347116);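 also: 48 hour compound exposure; plate controls were DMSO for no effect and bortezomib for full effect; nearly all actives have a fitted effect of over 60% in size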
Details: SJ-GBM2 glioblastoma cells, viability; series mostly up to 45.9 µM
Records with an inconclusive call do not appear. The source made the active and inactive calls. Calls come from the whole dose curve; as a rule, active = well fitted cell-killing curve with a large enough effect; inconclusive = small, poorly fitted or top-dose-only effect, or effect the other way; inactive = no such curve, though single readings can be large or run the other way.
The categories you may choose from are active, inactive

What outcome does the record of this test show for Cc1c(C)c2c(c(C)c1O)CCC(C)(COc1ccc(CC3SC(=O)NC3=O)cc1)O2 (stereo not given) ?
inactive

====

Assay: qHTS of pediatric cancer cell lines to identify multiple opportunities for drug repurposing: Primary screen for LAN-5 cells (AID 1347100)
Conditions: LAN-5 neuroblastoma viability, CellTiter-Glo luminescence, 48 h; series mostly up to 46 µM
Inconclusive results are not listed. Activity calls are given as the source filed them. The call rests on the fitted dose curve; in most records, active means well fitted cell-killing curve with a large enough effect; inconclusive means small, poorly fitted or top-dose-only effect; inactive means no such curve, though single readings can be large or run the other way.
Assign a class; possible classes are Yes for active, No for inactive

Illustrative cases are given below, each with its answer.
COMPOUND	QUALITATIVE LABEL
CN1CCN(CCCN2c3ccccc3Sc3ccc(C(F)(F)F)cc32)CC1	Yes
CCN(CC)CCCC(C)Nc1nc(C)cc(Nc2ccc3nc(C)cc(N)c3c2)n1 (stereo not given)	No
COc1ccc(-c2oc3cc(OC)ccc3c2C(=O)c2ccc(C#N)cc2)cc1	Yes

For NC(=O)c1ccc(I)c([N+](=O)[O-])c1 , which call appears in the assay record?
No

====

Assay: Quantitative High-Throughput drug screen in 47 multiple myeloma cell lines against the NCATS MIPE library collection: PE2_PLB cell viability assay (AID 1919869); also: nearly all actives have a fitted effect of over 35% in size
Conditions: PE2_PLB myeloma cells viability, ATP luminescence, 48 h; series mostly up to 45.8 µM
Records with an inconclusive call do not appear. Active and inactive are the calls of the source. Calls follow the shape of the dose curve; as a rule, active = well fitted cell-killing curve with a large enough effect; inconclusive = small, poorly fitted or top-dose-only effect, or effect the other way; inactive = no such curve, though single readings can be large or run the other way.
Form entry, call: pick from active, inactive

Example cases with answers are listed next.
MOLECULE	QUALITATIVE LABEL
CC(C[N+](C)(C)C)OC(N)=O (stereo not given)	inactive
Cc1[nH]c(=O)c(C#N)cc1-c1ccc2nccn2c1	inactive
CC1(C)Cc2c(-c3ccccc3)c(-c3ccc(Cl)cc3)c(CC(=O)O)n2C1	active

Could you kindly confirm the outcome this assay logged for N#Cc1ccc(C(c2ccc(C#N)cc2)n2cncn2)cc1 ?
inactive

Each molecule tested received a call. Report the one for COc1ccc(-c2ccc3c(N4CCOC[C@H]4C)nc(N4CCOC[C@H]4C)nc3n2)cc1CO .
active

# fetch the recorded call for CCCS(=O)(=O)Nc1ccc(F)c(C(=O)c2c[nH]c3ncc(-c4ccc(Cl)cc4)cc23)c1F here
active

For this molecule, state the assay outcome: CC[C@@H](C)[C@H](NC(=O)[C@H](CC1CCCCC1)NC(=O)c1ccno1)C(=O)N1CCC2(CCc3ccccc32)CC1
inactive

I would be grateful if you could indicate the recorded call for Cc1c(CN2CCN(C(=O)C(C)C)CC2)sc2c(N3CCOCC3)nc(-c3cnc(N)nc3)nc12 .
active

Check the results log: what was the call for CCOc1ccn(-c2ccc(F)cc2)c(=O)c1C(=O)Nc1ccc(Oc2ccnc(N)c2Cl)c(F)c1 ?
active

# outcome recorded in this test, key = CCN(c1ccccc1)c1cc(NC)[n+](C)c(C)n1
inactive

====

Tested on: CRL-7250
Assay: Cytotoxic Profiling of Annotated Libraries Using Quantitative High-Throughput Screening (AID 1296008); also: % is scaled to controls: 0 for no effect and ±100 for the full control effect; nearly all actives have a fitted effect of over 60% in size
Details: Five cell lines viability, CellTiter-Glo ATP luminescence, 48-72 h; active compounds read low
Inconclusive results are not listed.
OBSERVED PROPERTY: max response (%)
Give the quantity in %, number only.

Response field max response (CRL-7250) for item O=C1CCCC2=C1C(c1[nH]ncc1Cl)N=C(Nc1nc3ccccc3o1)N2 (stereo not given) : 2.7

Lab entry: CRL-7250 assay, compound Cn1cc(-c2ccc3nnc(C(F)(F)c4ccc5ncccc5c4)n3n2)cn1 , max response = -14.4

Let me check: CC(C)OC(=O)C1=CN(C(=O)c2ccc(F)c(F)c2)CC(C)(C)c2c1[nH]c1ccccc21 , system CRL-7250, measured max response is 1.22

// max response (CRL-7250) for Cc1cc2c(F)c(Oc3ncnn4cc(OC[C@@H](C)O)c(C)c34)ccc2[nH]1 = -47.3

Result for CCC(C)N(C)C(=O)c1cc2ccccc2c(-c2ccccc2Cl)n1 (stereo not given) , tested on CRL-7250, max response: 0.969

Reading of max response for COc1ccc([C@@H]2CC(=O)c3c(O)cc(O[C@@H]4O[C@H](CO[C@@H]5O[C@@H](C)[C@H](O)[C@@H](O)[C@@H]5O)[C@@H](O)[C@H](O)[C@@H]4O)cc3O2)cc1O with CRL-7250: -5.3

Record NC(=O)c1ccc(-c2nc(-c3ccc4c(c3)OCO4)c(-c3ccccn3)[nH]2)cc1 / CRL-7250, max response recorded as 3.54

Record O=S(=O)(N=Cc1c(O)ccc2ccccc12)c1cccs1 has CRL-7250 max response equal to -0.432

Short answer on CRL-7250 for O=C(O)COCCN1CCN(C(c2ccccc2)c2ccc(Cl)cc2)CC1 (stereo not given) , max response: -0.386

Measured max response for this entry C[C@]12CCC(=O)C=C1CC[C@@H]1[C@@H]2[C@@H](O)C[C@@]2(C)[C@H]1CC[C@]2(O)C(=O)CO on CRL-7250: 3.48

The reported max response value, CRL-7250, for CCOc1ccc(Cc2cc([C@@H]3O[C@H](CO)[C@@H](O)[C@H](O)[C@@H]3O)ccc2Cl)cc1 reads -1.42

Reported CRL-7250 max response for item CCCCCCCc1ccc(CCc2cccc(O)c2C(=O)O)cc1 was -0.808

Readout max response for COc1ccc2c3n(c(=NC(=O)c4cccnc4)nc2c1OC)CCN3 , test system CRL-7250, was -15.5

Per the reported CRL-7250 data, CCN(c1ccccc1)c1cc(NC)[n+](C)c(C)n1 has max response of -1.6

With CRL-7250 as the test system, CCOc1ccn(-c2ccc(F)cc2)c(=O)c1C(=O)Nc1ccc(Oc2ccnc(N)c2Cl)c(F)c1 showed max response of -27.8

Per the reported CRL-7250 data, NC(=O)c1ccc(I)c([N+](=O)[O-])c1 has max response of 1.49

Value sought: max response, system CRL-7250, item OCCn1cc(-c2cnc3nnn(Cc4ccc5ncccc5c4)c3n2)cn1 . Result: -20.1

Query CC1(C)SCCN(S(=O)(=O)c2ccc(OCC#CCO)cc2)[C@@H]1C(=O)NO on CRL-7250; max response returned: -4.21

Given the compound Cc1[nH]c(=O)c(C#N)cc1-c1ccc2nccn2c1 and test system CRL-7250, the measured max response is 0.18

Simply: CC(C[N+](C)(C)C)OC(N)=O (stereo not given) , CRL-7250, max response = 0.597
